Entry source: ChEMBL document CHEMBL1155690

Tested on: Debaryomyces hansenii
Assay: Antimicrobial activity against Debaryomyces hansenii IFO 18 after 48 hrs by agar dilution method
Format: functional
Details: IFO 18, 48 h
PROPERTY_MEASURED: MIC (µg/mL)
API: value field is a number in µg/mL; no unit string.

Query "C[C@H]1CC[C@@]2(OC1)O[C@H]1C[C@H]3[C@@H]4CC[C@@H]5C[C@@H](O[C@@H]6O[C@H](CO)[C@@H](O)[C@H](O[C@@H]7O[C@H](CO)[C@@H](O)[C@H](O)[C@H]7O)[C@H]6O[C@@H]6O[C@H](CO)[C@@H](O)[C@H](O)[C@H]6O)CC[C@]5(C)[C@H]4CC[C@]3(C)[C@H]1[C@@H]2C" yields MIC of 6.25

###

Property: MIC; scope: individual compounds
Tested on: Candida albicans
Assay: Antimicrobial activity against Candida albicans TIMM 0134 after 48 hrs by agar dilution method
Type: functional

Some entries whose results are on file:
CC1CC[C@@]2(OC1)O[C@H]1C[C@H]3[C@@H]4CC[C@@H]5C[C@@H](O[C@@H]6O[C@H](CO)[C@@H](O)[C@H](O[C@@H]7OC[C@@H](O)[C@H](O)[C@H]7O)[C@H]6O[C@@H]6O[C@H](CO)[C@@H](O)[C@H](O)[C@H]6O)CC[C@]5(C)[C@H]4CC(=O)[C@]3(C)[C@H]1[C@@H]2C (mixture of isomers): > 100 µg/mL
C[C@H]1CC[C@@]2(OC1)O[C@H]1C[C@H]3[C@@H]4CC[C@@H]5C[C@@H](O[C@@H]6O[C@H](CO)[C@H](O)[C@H](O[C@@H]7O[C@H](CO)[C@@H](O)[C@H](O)[C@H]7O)[C@H]6O[C@@H]6O[C@H](CO)[C@@H](O)[C@H](O)[C@H]6O)CC[C@]5(C)[C@H]4CC[C@]3(C)[C@H]1[C@@H]2C: 25 µg/mL

Now consider the entry below.
Query CC1CC[C@@]2(OC1)O[C@H]1C[C@H]3[C@@H]4CC[C@@H]5C[C@@H](O[C@@H]6O[C@H](CO)[C@H](O)[C@H](O[C@@H]7OC[C@@H](O)[C@H](O)[C@H]7O)[C@H]6O[C@@H]6O[C@H](CO)[C@@H](O)[C@H](O)[C@H]6O)[C@@H](O)C[C@]5(C)[C@H]4CC[C@]3(C)[C@H]1[C@@H]2C (stereo partly drawn) yields MIC of > 100 µg/mL

###

Tested on: Wickerhamomyces anomalus
Experiment: Antimicrobial activity against Hansenula anomala HUT 7083 after 48 hrs by agar dilution method
Assay type: functional
PROPERTY_MEASURED: MIC

Some entries whose results are on file:
CC1CC[C@@]2(OC1)O[C@H]1C[C@H]3[C@@H]4CC[C@@H]5C[C@@H](O[C@@H]6O[C@H](CO)[C@H](O)[C@H](O[C@@H]7OC[C@@H](O)[C@H](O)[C@H]7O)[C@H]6O[C@@H]6O[C@H](CO)[C@@H](O)[C@H](O)[C@H]6O)[C@@H](O)C[C@]5(C)[C@H]4CC[C@]3(C)[C@H]1[C@@H]2C (stereo partly drawn): > 100 µg/mL
C=C1CC[C@@]2(OC1)O[C@H]1C[C@H]3[C@@H]4CC[C@@H]5C[C@@H](O[C@@H]6O[C@H](CO)[C@H](O)[C@H](O[C@@H]7OC[C@@H](O)[C@H](O)[C@H]7O)[C@H]6O[C@@H]6O[C@H](CO)[C@@H](O)[C@H](O)[C@H]6O)[C@@H](O)C[C@]5(C)[C@H]4CC[C@]3(C)[C@H]1[C@@H]2C: > 100 µg/mL

Now consider the entry below.
Query "C[C@H]1CC[C@@]2(OC1)O[C@H]1C[C@H]3[C@@H]4CC[C@@H]5C[C@@H](O[C@@H]6O[C@H](CO)[C@H](O)[C@H](O)[C@H]6O[C@@H]6O[C@H](CO)[C@@H](O)[C@H](O)[C@H]6O)[C@@H](O)C[C@]5(C)[C@H]4CC[C@]3(C)[C@H]1[C@@H]2C" yields MIC of > 100 µg/mL
